Tested on: L1210 leukemia ip in BDF1 mice, survival T/C
Test: NCI In Vivo Anticancer Drug Screen. Data for tumor model L1210 Leukemia (intraperitoneal) in B6D2F1 (BDF1) mice
Assay setup: endpoint: mean survival time; dose: 200.0 mg/kg/injection; schedule: Q04DX003 (ip); vehicle: saline with Tween-80; higher = longer survival
Inconclusive results and toxic doses are left out.

Compound: CC(C)CCCCc1c[nH]c(=O)[nH]c1=O
T/C: 97 % of control
//
Compound: O=C1/C(=C\c2ccc(OCc3ccccc3)cc2)N2CCC1CC2
T/C: 95 % of control
//
Compound: O=C1OC(=O)C2(Br)C3C=CC(CC3)C12Br (stereo not drawn)
T/C: 96 % of control
//
Compound: OCC1OC(c2ccccc2)OC2C(CO)OC(c3ccccc3)OC12 (stereo not drawn)
T/C: 96 % of control
//
Compound: COc1cc(C(=O)O)cc(OC)n1
T/C: 96 % of control
//
Compound: CCCCCCC(=O)/C=C/c1ccc(Cl)cc1
T/C: 98 % of control
//
Compound: S=c1[nH]c2nc(Cl)c(Cl)nc2[nH]1
T/C: 102 % of control
//
Compound: COc1ccc(OC)c(NC(=O)c2ccccc2Cl)c1
T/C: 94 % of control
//
Compound: Cc1ccc(S(=O)(=O)Oc2ccc3ccccc3c2)cc1
T/C: 86 % of control
//
Compound: NC(=O)C(c1ccccc1)c1ccccc1
T/C: 100 % of control
//
Compound: Cc1cc(C)c(C(=O)O)c(C)c1Br
T/C: 94 % of control
//
Compound: CC(C)[N+](C(C)C)(C(C)C)C(C)C.[I][Pb]([I])([I])[I]
T/C: 98 % of control
//
Compound: O=C(Nc1ccc2c(c1)OCO2)O/N=C\c1ccccc1
T/C: 97 % of control
